measurement_notes: S9 metabolism assay
Assay type: in vitro ADME, rat
experimental_context: hydrolysis study in S9 extract of rat liver, identified via LC-MS

record_smiles: CCC(C)(C)c1cccc2cc(CNC(=O)Nc3ccccc3C(=O)O)oc12
amide cleavage: no amide cleavage
--
record_smiles: O=C(NCc1cc2cccc(C(F)(F)F)c2o1)Nc1ccccc1C(=O)O
amide cleavage: no amide cleavage

====

assayed_target: hDHODH (Homo sapiens, UniProt Q02127)
Sequence (Q02127 29-395 limits assumed): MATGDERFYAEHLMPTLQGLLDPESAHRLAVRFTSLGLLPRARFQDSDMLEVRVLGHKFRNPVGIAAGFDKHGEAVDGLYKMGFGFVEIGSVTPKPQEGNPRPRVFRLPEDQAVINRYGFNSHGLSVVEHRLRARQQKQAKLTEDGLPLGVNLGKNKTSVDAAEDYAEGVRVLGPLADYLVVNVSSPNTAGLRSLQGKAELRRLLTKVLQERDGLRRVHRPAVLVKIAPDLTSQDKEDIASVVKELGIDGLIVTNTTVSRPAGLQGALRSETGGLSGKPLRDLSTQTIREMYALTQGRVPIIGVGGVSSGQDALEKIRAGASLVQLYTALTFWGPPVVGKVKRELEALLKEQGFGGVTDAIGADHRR
pIC50: −log10 of the molar value.
readout_label: pIC50

record_smiles: CCC(=O)Nc1ccc(C#Cc2ccc(N3CCOCC3)cc2)cc1C(=O)O
measurement: 7.30
--
record_smiles: O=C(NCc1cc2cccc(C(F)(F)F)c2o1)Nc1ccccc1C(=O)O
measurement: 7.04
--
record_smiles: CCC(C)(C)c1cccc2cc(CNC(=O)Nc3ccccc3C(=O)O)oc12
measurement: 8.04
--
record_smiles: O=C(Nc1cnccc1C(=O)O)Nc1cccc2ccccc12
measurement: 7.09

====

Measured Papp at 5 h, 200 µM values are reported for all entries that follow.
measurement_notes: Membrane permeability (PAMPA assay)
Assay type: in vitro ADME
experimental_context: PBS pH 7.4, 5 h, 25 °C

record_smiles: O=C(NCc1cc2cccc(C(F)(F)F)c2o1)Nc1ccccc1C(=O)O
Papp at 5 h, 200 µM: 3.23 ×10⁻⁶ cm/s

record_smiles: O=C(Nc1cnccc1C(=O)O)Nc1cccc2ccccc12
Papp at 5 h, 200 µM: 6.84 ×10⁻⁶ cm/s

record_smiles: CCC(C)(C)c1cccc2cc(CNC(=O)Nc3ccccc3C(=O)O)oc12
Papp at 5 h, 200 µM: 5.74 ×10⁻⁶ cm/s
